Experiment: BrdU cell proliferation assay (cytotoxicity) on HEK293 OATP1B3 cells
Type: cell-based
Details: human, 96 h incubation, BrdU assay (FIG. 4)
Description: BrdU Cell Proliferation Assay on HEK293 and HEK293 OATP1B3 cells HEK293-OATP1B3 cell culture plates were coated with poly-D-lysine. Coating with Poly-D-Lysine: • 5 mg poly D-lysine in 50 ml sterile water • 50 μl in each well of a 96 well plate • Incubation for 1 h at RT • Washing of wells twice with 200 μl sterile water • Drying for at least for 2 h (RT) […]
*1 amine or outer side, *2 acyl side, *3 side chain or, on linkers, in order; H or OH if unused. Where a SMILES comes first, the peptide text is derived from it. Bridges are numbered along the chain shown (N, C = ends). [ ]: non-standard residue; d: D form. ξ: configuration not given here. Ile(4R-OH,5-OH) = C[C@H]([C@H](N)C(=O)O)[C@@H](O)CO; X2 = Nc1ccc2c(CC(N[*:1])C(=O)[*:2])c([*:3])[nH]c2c1; X1 = O=C([C@@H]1CC(O)CN1[*:1])[*:2]; ξC = NC(CS)C(=O)O
ASSAY METRIC: EC50 at 96 h (nM)
Use nM as the unit, but write only the number.

Challenge: Note down EC50 at 96 h recorded for CC[C@H](C)[C@@H]1NC(=O)CNC(=O)C2Cc3c([nH]c4cc(N)ccc34)SCC(NC(=O)CNC1=O)C(=O)N[C@@H](CC(N)=O)C(=O)N1CC(O)C[C@H]1C(=O)N[C@@H]([C@@H](C)[C@@H](O)CO)C(=O)N2 (stereo partly drawn) [HDP 30.2528, 6′-amino-amaninamide] (cyclo(GIG[ξC]N[X1][Ile(4R-OH,5-OH)][X2]); thioether 4-8)
Response given: 30
